# Test system: Enterococcus sp.
# experiment.summary: in vitro antibacterial evaluation, MIC by broth dilution
# Format: cell-based
# reported.conditions: broth dilution, 18 hours at 35° C.
Reported MIC Enterococcus faecium (GC 2243) is given for each of the following compounds.
measured.property: MIC Enterococcus faecium (GC 2243) (µg/mL)

- N=C1NCC(C(O)C2NC(=O)C(Cc3ccc(OC4OC(CO)C(OC5OC6COC7(OC6C(O)C5O)C5CC6CC(C5)CC7C6)C(O)C4O)cc3)NC(=O)C(Cc3ccccc3)NC(=O)CNC(=O)C(CO)NC(=O)C(C(O)C3CNC(=N)N3C3OC(CO)C(O)C(O)C3O)NC2=O)N1 (stereo not shown) [Example 220]: 1
- CC(c1ccccc1)C1NC(=O)CNC(=O)C(CO)NC(=O)C(CC2CN(Cc3ccccc3)C(=N)N2C2OC(CO)C(O)C(O)C2O)NC(=O)C(CC2CNC(=N)N2)NC(=O)C(Cc2ccc(OC3OC(CO)C(OC4OC5COC6(OC5C(O)C4O)C4CC5CC(C4)CC6C5)C(O)C3O)cc2)NC1=O (stereo not shown) [Example 80]: 32
- CC(c1ccccc1)C1NC(=O)CNC(=O)C(CO)NC(=O)C(C(O)C2CNC(=N)N2C2OC(CO)C(O)C(O)C2O)NC(=O)C(C(O)C2CNC(=N)N2)NC(=O)C(Cc2ccc(OC3OC(COC(=O)C(c4ccccc4)c4ccccc4)C(OC4OC(CO)C(O)C(O)C4O)C(O)C3O)cc2)NC1=O (stereo not shown) [Example 96b]: 8
- CC(c1ccc(Cl)cc1)C1NC(=O)CNC(=O)C(CO)NC(=O)C(C(O)C2CNC(=N)N2C2OC(CO)C(O)C(O)C2O)NC(=O)C(C(O)C2CNC(=N)N2)NC(=O)C(Cc2ccc(OC3OC(CO)C(OC4OC5COC(C6CCCCC6)OC5C(O)C4O)C(O)C3O)cc2)NC1=O (stereo not shown) [Example 193]: 1
- CCCOc1ccc(COCC2OC(OC3C(CO)OC(Oc4ccc(CC5NC(=O)C(C(C)c6ccccc6)NC(=O)CNC(=O)C(CO)NC(=O)C(C(O)C6CNC(=N)N6C6OC(CO)C(O)C(O)C6O)NC(=O)C(C(O)C6CNC(=N)N6)NC5=O)cc4)C(O)C3O)C(O)C(O)C2O)cc1 (stereo not shown) [Example 235]: 4
- CC(c1ccccc1)C1NC(=O)CNC(=O)C(CO)NC(=O)C(C(O)C2CNC(=N)N2C2OC(CO)C(O)C(O)C2O)NC(=O)C(C(O)C2CNC(=N)N2)NC(=O)C(Cc2ccc(OC3OC(CO)C(OC4OC5COC6(CC7CCC6(C)C7(C)C)OC5C(O)C4O)C(O)C3O)cc2)NC1=O (stereo not shown) [Example 215]: 0.5
- CC(c1ccccc1)C1NC(=O)CNC(=O)C(CO)NC(=O)C(C(O)C2CNC(=N)N2C2OC(CO)C(O)C(O)C2O)NC(=O)C(C(O)C2CNC(=N)N2)NC(=O)C(Cc2ccc(OC3OC(CO)C(OC4OC5COC6(OC5C(O)C4O)C4CCCC6CCC4)C(O)C3O)cc2)NC1=O (stereo not shown) [Example 212]: 8
- CC(c1ccccc1)C1NC(=O)CNC(=O)C(CO)NC(=O)C(C(O)C2CNC(=N)N2C2OC(CO)C(O)C(O)C2O)NC(=O)C(C(O)C2CNC(=N)N2)NC(=O)C(Cc2ccc(OC3OC(CO)C(OC4OC(CO)C(OCc5ccc(OCc6ccccc6)cc5)C(O)C4O)C(O)C3O)cc2)NC1=O (stereo not shown) [Example 231a]: 2
- CCCCCNC(=O)OCC1OC(OC2C(CO)OC(Oc3ccc(CC4NC(=O)C(C(C)c5ccccc5)NC(=O)CNC(=O)C(CO)NC(=O)C(C(O)C5CNC(=N)N5C5OC(CO)C(O)C(O)C5O)NC(=O)C(C(O)C5CNC(=N)N5)NC4=O)cc3)C(O)C2O)C(O)C(O)C1O (stereo not shown) [Example 251b]: 64
- CCCCCCN=C1NCC(C(O)C2NC(=O)C(C(O)C3CNC(=N)N3)NC(=O)C(Cc3ccc(OC4OC(CO)C(OC5OC6COC7(OC6C(O)C5O)C5CC6CC(C5)CC7C6)C(O)C4O)cc3)NC(=O)C(C(C)c3ccccc3)NC(=O)CNC(=O)C(CO)NC2=O)N1C1OC(CO)C(O)C(O)C1O (stereo not shown) [Example 84]: 4
- CC(C)CC(=O)OC1C(O)C(OC2C(CO)OC(Oc3ccc(CC4NC(=O)C(C(C)c5ccccc5)NC(=O)CNC(=O)C(CO)NC(=O)C(C(O)C5CNC(=N)N5C5OC(CO)C(O)C(O)C5O)NC(=O)C(C(O)C5CNC(=N)N5)NC4=O)cc3)C(O)C2O)OC2COC3(OC21)C1CC2CC(C1)CC3C2 (stereo not shown) [Example 218]: 4
